Measured pIC50 accompanies every entry in the list below.
Tested on: IMR-32
PROTOCOL DETAILS: Antiproliferative activity against human IMR32 cells by MTS reduction assay
pIC50: −log10 of the molar value.
MEASURE NAME: pIC50

MOL | MEASURE NAME | RESULT
CC(=O)c1ccc(-c2cnc(N)nc2-c2c[nH]c3cccc(Br)c23)cc1 | pIC50 | < 5.00
Nc1ncc(I)c(-c2c[nH]c3cc([N+](=O)[O-])ccc23)n1 | pIC50 | 5.00
CC(=O)Nc1ccc(-c2cnc(N)nc2-c2c[nH]c3c(Br)cccc23)cc1 | pIC50 | 4.60
COc1cccc(-c2cnc(N)nc2-c2c[nH]c3cccc(Br)c23)c1 | pIC50 | < 5.00
Nc1ncc(-c2ccc(C(F)(F)F)cc2)c(-c2c[nH]c3c(Br)cccc23)n1 | pIC50 | < 5.00
COc1cccc(-c2cnc(N)nc2-c2c[nH]c3ccc(Br)cc23)c1 | pIC50 | 4.70
CC(=O)Nc1ccc(-c2cnc(N)nc2-c2c[nH]c3cccc(Br)c23)cc1 | pIC50 | < 5.00
Nc1ncc(-c2ccc(C(F)(F)F)cc2)c(-c2c[nH]c3cccc(Br)c23)n1 | pIC50 | < 5.00
